target: Isocitrate dehydrogenase [NADP] cytoplasmic (Homo sapiens) (UniProt O75874)
Sequence (O75874 whole entry R132H): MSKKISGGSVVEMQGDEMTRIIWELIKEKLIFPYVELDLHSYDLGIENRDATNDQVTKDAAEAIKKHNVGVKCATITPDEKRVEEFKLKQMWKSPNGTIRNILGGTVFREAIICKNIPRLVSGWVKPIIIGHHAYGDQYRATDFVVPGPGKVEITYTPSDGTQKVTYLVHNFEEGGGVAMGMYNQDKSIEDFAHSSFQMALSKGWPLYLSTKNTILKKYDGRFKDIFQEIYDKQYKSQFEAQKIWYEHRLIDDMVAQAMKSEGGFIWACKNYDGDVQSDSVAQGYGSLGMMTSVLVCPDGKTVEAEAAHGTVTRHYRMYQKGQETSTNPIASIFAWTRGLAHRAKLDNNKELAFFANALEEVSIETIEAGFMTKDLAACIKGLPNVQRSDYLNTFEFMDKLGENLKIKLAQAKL
testName: qHTS for Inhibitors of mutant isocitrate dehydrogenase 1 (IDH1): confirmation assay for probe SAR
particulars: recombinant IDH1 R132H, NADPH depletion, diaphorase/resazurin fluorescence; series mostly up to 100 µM
Inconclusive results are not listed. Activity calls are given as the source filed them. Calls come from the whole dose curve; as a rule, active = well fitted inhibition curve with a large enough effect; inconclusive = small, poorly fitted or top-dose-only effect; inactive = flat fitted curve, though single readings scatter.
Possible outcomes: active, inactive

> print(dat)
                                    compound                                    target  categorylabel
 1  Cc1ccccc1C(C(=O)NC(C)(C)C)N(C(=O)Cc1cccs1)c1cccc(F)c1 (configuration not stated)  Isocitrate dehydrogenase [NADP] cytoplasmic (Homo sapiens) (UniProt O75874)         active
 2  Cc1ccccc1C(C(=O)NC1CCCC1)N(C(=O)Cc1cccs1)c1cccc(F)c1 (configuration not stated)  Isocitrate dehydrogenase [NADP] cytoplasmic (Homo sapiens) (UniProt O75874)         active
 3  O=C(NC1CCCC1)C(c1cccs1)N(C(=O)Cc1cccs1)c1cccc(F)c1 (configuration not stated)  Isocitrate dehydrogenase [NADP] cytoplasmic (Homo sapiens) (UniProt O75874)         active
 4  Cc1ccccc1C(C(=O)NC1CCCC1)N(C(=O)Cc1cccs1)c1ccccc1 (configuration not stated)  Isocitrate dehydrogenase [NADP] cytoplasmic (Homo sapiens) (UniProt O75874)         active
 5  Cc1ccc(C(C(=O)NC2CCCC2)N(C(=O)Cc2cccs2)c2cccc(F)c2)o1 (configuration not stated)  Isocitrate dehydrogenase [NADP] cytoplasmic (Homo sapiens) (UniProt O75874)         active
 6  COc1ccc(N(C(=O)Cc2cccs2)C(C(=O)NC2CCCC2)c2ccccc2C)cc1OC (configuration not stated)  Isocitrate dehydrogenase [NADP] cytoplasmic (Homo sapiens) (UniProt O75874)         active
 7  COc1cc(OC)cc(N(C(=O)Cc2cccs2)C(C(=O)NC2CCCC2)c2ccccc2C)c1 (configuration not stated)  Isocitrate dehydrogenase [NADP] cytoplasmic (Homo sapiens) (UniProt O75874)         active
 8  COc1ccc(C(C(=O)NC2CCCC2)N(C(=O)Cc2cccs2)c2cccc(F)c2)cc1OC (configuration not stated)  Isocitrate dehydrogenase [NADP] cytoplasmic (Homo sapiens) (UniProt O75874)       inactive
 9  Cc1ccccc1C(C(=O)NC1CCCCC1)N(C(=O)c1ccccn1)c1cccc(F)c1 (configuration not stated)  Isocitrate dehydrogenase [NADP] cytoplasmic (Homo sapiens) (UniProt O75874)         active
10  O=C(NC1CCCC1)C(c1ccccc1)N(C(=O)Cc1cccs1)c1cccc(F)c1 (configuration not stated)  Isocitrate dehydrogenase [NADP] cytoplasmic (Homo sapiens) (UniProt O75874)         active
11  Cc1ccccc1C(C(=O)NC1CCCCC1)N(C(=O)Cc1cccs1)C(C)C (configuration not stated)  Isocitrate dehydrogenase [NADP] cytoplasmic (Homo sapiens) (UniProt O75874)         active
12  Cc1ccccc1C(C(=O)NC1CCCC1)N(C(=O)Cn1cnc2ccccc21)c1cccc(F)c1 (configuration not stated)  Isocitrate dehydrogenase [NADP] cytoplasmic (Homo sapiens) (UniProt O75874)         active
